target of assay: wild type CaMKII kinase domain (residues 1–283) (Drosophila, UniProt Q00168 1-283)
Sequence (Q00168 1-283): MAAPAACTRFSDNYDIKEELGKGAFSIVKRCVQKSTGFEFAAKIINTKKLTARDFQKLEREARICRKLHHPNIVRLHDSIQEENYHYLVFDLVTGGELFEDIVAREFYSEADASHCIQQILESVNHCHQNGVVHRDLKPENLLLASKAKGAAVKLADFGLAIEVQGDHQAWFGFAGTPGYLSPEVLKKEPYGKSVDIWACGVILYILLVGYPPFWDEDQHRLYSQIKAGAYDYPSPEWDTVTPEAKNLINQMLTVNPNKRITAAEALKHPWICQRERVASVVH
test description: ITC
No end group written: not given here. MBP = not defined here
Use rule met when the recorded stoichiometry N is no lower than 1; use rule not met when it is lower.

1. MBP-dEAG_(long) (wild-type Drosophila EAG CaMKII-binding fragment, residues 768 to 820, fused to maltose-binding protein) (domain or fragment, UniProt Q02280 768-820, looked up, reading uncertain) {MBP}-VFPKAPKLQASQATLARQDTIDEGGEVDSSPPSRDSRVVIEGAAVSSATVGPS; rule not met
2. MBP-dEAG_(long) R784A (domain or fragment, Drosophila, UniProt Q02280 768-820, looked up) VFPKAPKLQASQATLAAQDTIDEGGEVDSSPPSRDSRVVIEGAAVSSATVGPS; rule not met
3. MBP-dEAG_(long) E790A (domain or fragment, Drosophila, UniProt Q02280 768-820, looked up) VFPKAPKLQASQATLARQDTIDAGGEVDSSPPSRDSRVVIEGAAVSSATVGPS; rule met

src = paper PMC6658111
